This collection of values is drawn from PubChem BioAssay.

experiment: basal MM1S mitochondrial membrane potential changes, profiling panel, cell-based, JC-1 fluorescence, 24 h, 100 nL compound (AID 1170); conditions: higher = more signal; further: test concentration not given here
Tag: y if measured z-score is not below -0.3, n if it is.

                                    compound  label
 0  CC(=O)OC[C@H]1O[C@H](C#Cc2ccccc2)C=C[C@@H]1OC(C)=O      n
 1  CC(C)=CCCC(C)=CCON=C1C[C@@H](O)[C@@H](O)[C@@H]2[C@@H]3C(=O)N(c4ccc(F)cc4F)C(=O)[C@@H]3CC[C@@H]12      n
 2  COc1ccc(COC(=O)NN=C2C[C@@H](O)[C@@H](O)[C@@H]3[C@@H]4C(=O)N(c5ccc(F)cc5F)C(=O)[C@@H]4CC[C@H]23)cc1      n
 3  COC(=O)[C@H](C)NC(=O)CCC1CC(OC(=O)NCc2ccc3c(c2)OCO3)CC2(CCCC(COC(=O)NCC(c3ccccc3)c3ccccc3)O2)O1 (some centres undefined)      n
 4  CCOC(=O)NN=C1C[C@@H](O)[C@@H](O)[C@@H]2[C@@H]3C(=O)N(Cc4ccc5c(c4)OCO5)C(=O)[C@@H]3CC[C@H]12      n
 5  COc1ccc(O[C@H]2C=C[C@@H](c3ccccc3)O[C@@H]2CON=C2[C@H]3CCn4c(=O)n(-c5ccccc5)c(=O)n4[C@H]3[C@H](O)[C@@H]3O[C@H]23)cc1      n
 6  CCCNC(=O)OC[C@H]1O[C@H](CCON=C(C)C)C=C[C@@H]1Oc1ccc(OC)cc1      y
 7      CC=CC1=C(CO)C(=O)[C@@H]2O[C@@H]2C1=O      n
 8  O=C(NN=C1C[C@@H](O)[C@@H](O)[C@@H]2[C@@H]3C(=O)N(C[C@@H]4CCCO4)C(=O)[C@@H]3CC[C@@H]12)OCc1ccccc1      n
 9  C[C@@H](c1ccccc1)N1C(=O)[C@H]2[C@H]3[C@H](O)[C@H](O)CC(=O)[C@H]3CC[C@H]2C1=O      y
10  CCOC(=O)[C@H](CC(C)C)NC(=O)CCC1CC(OC(=O)NCc2ccc3c(c2)OCO3)CC2(CCCC(COC(=O)NCCCN3CCCC3=O)O2)O1 (some centres undefined)      n
11  C=CC[C@@H]1C=C[C@H](ON=C(C)CCC(=O)OC[C@H]2O[C@H](C#Cc3ccccc3)C=C[C@@H]2Oc2ccc(C)cc2)[C@@H](CO)O1      n
12  CCCCc1nc2c(c3c1C[C@H](C)OC3)CN(CCOc1ccccc1)CC2      y
13  CC(=O)OC[C@H]1O[C@H](CC=NO[C@H](C)c2cn([C@H](CO)Cc3ccccc3)nn2)C=C[C@@H]1OC(C)=O      y
14  CCOC(=O)NN=C1C[C@@H](O)[C@@H](O)[C@@H]2[C@@H]3C(=O)N([C@@H](C)c4ccccc4)C(=O)[C@@H]3CC[C@@H]12      n
15  CCOC(=O)[C@H](CC(C)C)NC(=O)CCC1CC(OC(=O)NCCc2ccc(F)cc2)CC2(CCCC(COC(=O)NCCc3ccc(Cl)cc3)O2)O1 (some centres undefined)      y
16  Cc1ccc(S(=O)(=O)NC(CCc2ccccc2)CC(=O)C(C)(C)C)cc1 (centres undefined)      y
17  COC(=O)[C@H](C)NC(=O)CCC1CC(OC(=O)NCCc2ccc(F)cc2)CC2(CCCC(COC(=O)NCc3cccc(C(F)(F)F)c3)O2)O1 (some centres undefined)      y
18  COC(=O)[C@@H]1CC[C@H](C)[C@@H](c2ccc(C)cc2)N1C(=O)c1ccc(C=NOC[C@@H](C)[C@H](OCc2ccccc2)C(C)C)cc1      n
19  O=C1C[C@@H](O)[C@@H](O)[C@@H]2[C@@H]3C(=O)N(C[C@@H]4CCCO4)C(=O)[C@@H]3CC[C@@H]12      y
20  Cn1c(=O)n2n(c1=O)[C@H]1[C@H](O)[C@@H]3O[C@@H]3C(=O)[C@H]1CC2      y
21  O=C1CCCC=C1C(CCc1ccccc1)OC(=O)c1ccc(Br)cc1 (centres undefined)      y
22  CC(CCN1CCc2nc(-c3ccccc3)c(-c3ccccc3)cc2C1)=NOC[C@@H](O)COCc1ccco1      y
23  CC(C)=CCCC(C)=CCON=C1C[C@@H](O)[C@@H](O)[C@@H]2[C@@H]3C(=O)N(Cc4ccccc4)C(=O)[C@@H]3CC[C@@H]12      n
24  Cc1ccc(S(=O)(=O)N[C@@H]2COC(=O)[C@@H](C)COC(=O)CC=C[C@H]2C)cc1      y
25  CCOC(=O)[C@H](Cc1ccccc1)NC(=O)CCC1CC(OC(=O)NCc2cccc3ccccc23)CC2(CCCC(COC(=O)NCc3ccccc3)O2)O1 (some centres undefined)      n
26  CCOC(=O)[C@H](Cc1ccccc1)NC(=O)CCC1CC(OC(=O)NCc2ccc3c(c2)OCO3)CC2(CCCC(COC(=O)NCCC(C)C)O2)O1 (some centres undefined)      n
27  COC(=O)[C@@H]1CC[C@H](C)[C@@H](c2ccc(C)cc2)N1C(=O)c1ccc(C=NO[C@H](C)c2cn([C@@H]3COC[C@H]3O)nn2)cc1      n
28  O=C1CCCC=C1C(O)CCOC(c1ccccc1)(c1ccccc1)c1ccccc1 (centres undefined)      y

----------
test: PSAC antagonists in infected red cells, primary screen, cell-based, P. falciparum Indochina, OD700, 1 h (AID 1154); conditions: P. falciparum Indochina infected RBC osmotic lysis, higher = more signal, called active from +8 up or from −8 down
EXPERIMENTAL_READOUT: z-score

>>> print(df.to_string())
                            chemical_string  reported_value
0      CC=CC1=C(CO)C(=O)[C@@H]2O[C@@H]2C1=O            -0.4
1  O=C1C2=CC[C@H]3C(=O)N(c4cccc(Oc5ccccc5)c4)C(=O)[C@H]3[C@H]2[C@H](O)[C@@H]2O[C@H]12         -0.0001
2  Cc1ccc(S(=O)(=O)N[C@H]2COC(=O)CC=C[C@H](C)[C@@H](NS(=O)(=O)c3ccc(C)cc3)COC(=O)CC=C[C@@H]2C)cc1           0.334
3  CCc1cc2c(nc1CC)CCN(CCC(C)=NO[C@H](C)c1cn([C@H](CO)Cc3ccccc3)nn1)C2             4.7
4  COC(=O)CC=C[C@@H](C)[C@@H](C=NO[C@@H]1O[C@H](COC(C)=O)[C@@H](OC(C)=O)[C@H](OC(C)=O)[C@H]1OC(C)=O)NS(=O)(=O)c1ccc(C)cc1           0.683
5  C[C@@H]1CC[C@H]2C(=O)O[C@@H](Cc3ccccc3)CN2[C@H]1c1ccc(Br)cc1            2.26
6  CON=C(C)CCC(=O)OC[C@H]1O[C@H](c2ccccc2)C=C[C@@H]1Oc1ccc(OC)cc1            5.54

----------
tested on: Sonic hedgehog protein (Shh); experiment: small-molecule binders of Shh protein, primary screen, biochemical, small-molecule microarray, 635/667 nm fluorescence (AID 1151); conditions: small-molecule microarray binding, 635 nm fluorescence; higher = more signal;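 further: Shh protein binding to compounds spotted on small-molecule microarray slides; score combines spot fluorescence intensity with signal-to-noise across triplicate slides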
Tag: met if measured composite z-score is not below 0.4, not met if it is.

MOLECULE	LABEL
O=C1C=C[C@@H](O)[C@@H]2[C@@H]3C(=O)N(C[C@@H]4CCCO4)C(=O)[C@@H]3CC[C@@H]12	not met
COC(=O)CC=C[C@@H](C)[C@@H](C=NO[C@H](C)c1cn([C@H](CO)Cc2ccccc2)nn1)OC	met
CO[C@H]1COC(=O)CC=C[C@H](C)[C@@H](OC)COC(=O)[C@@H](C)NC(=O)CC=C[C@@H]1C	met
O=C1C[C@@H](O)[C@@H](O)[C@@H]2[C@@H]3C(=O)N(c4cccc(Oc5ccccc5)c4)C(=O)[C@@H]3CC[C@H]12	met
O=C1CCCC=C1C(CCc1ccccc1)OC(=O)c1ccc(Br)cc1 (stereo not given)	not met
CCOC(=O)[C@H](CC(C)C)NC(=O)CCC1CC(OC(=O)NCc2cccc3ccccc23)CC2(CCCC(COC(=O)NCc3cccc(C(F)(F)F)c3)O2)O1 (stereo not given in full)	not met
CO[C@H]1COC(=O)CCC[C@@H](C)[C@H](OC)COC(=O)[C@@H]2CCCN2C(=O)CC=C[C@@H]1C	met
COc1cccc([C@H]2Oc3ccc(OC)cc3C(=NO[C@@H]3O[C@H](COC(C)=O)[C@@H](OC(C)=O)[C@H](OC(C)=O)[C@H]3OC(C)=O)[C@@H]2O)c1	not met
COc1ccc(O[C@H]2C=C[C@@H](c3ccccc3)O[C@@H]2COC(=O)CCC(C)=NO[C@@H]2O[C@H](COC(C)=O)[C@@H](OC(C)=O)[C@H](OC(C)=O)[C@H]2OC(C)=O)cc1	met
CO[C@H]1COC(=O)CC=C[C@@H](C)[C@H](OC)COC(=O)[C@@H]2CCCN2C(=O)CC=C[C@@H]1C	met
Cc1ccc(S(=O)(=O)N[C@H]2COC(=O)CC=C[C@H](C)[C@@H](NS(=O)(=O)c3ccc(C)cc3)COC(=O)CC=C[C@@H]2C)cc1	met
COc1cccc([C@@H]2Oc3ccc(OC)cc3C(=O)[C@H]2O)c1	met
CO[C@@H]1COC(=O)[C@@H](C)COC(=O)[C@@H](C)NC(=O)CC=C[C@@H]1C	met
CCN1C(=O)[C@H]2[C@H]3[C@H](O)[C@H](O)CC(=NOC[C@H]4O[C@H](c5ccccc5)C=C[C@@H]4Oc4ccc(OC)cc4)[C@@H]3CC[C@H]2C1=O	met
